assayed.system: human FGFR-1 (Homo sapiens, UniProt P11362)
Sequence (P11362 22-822 limits assumed): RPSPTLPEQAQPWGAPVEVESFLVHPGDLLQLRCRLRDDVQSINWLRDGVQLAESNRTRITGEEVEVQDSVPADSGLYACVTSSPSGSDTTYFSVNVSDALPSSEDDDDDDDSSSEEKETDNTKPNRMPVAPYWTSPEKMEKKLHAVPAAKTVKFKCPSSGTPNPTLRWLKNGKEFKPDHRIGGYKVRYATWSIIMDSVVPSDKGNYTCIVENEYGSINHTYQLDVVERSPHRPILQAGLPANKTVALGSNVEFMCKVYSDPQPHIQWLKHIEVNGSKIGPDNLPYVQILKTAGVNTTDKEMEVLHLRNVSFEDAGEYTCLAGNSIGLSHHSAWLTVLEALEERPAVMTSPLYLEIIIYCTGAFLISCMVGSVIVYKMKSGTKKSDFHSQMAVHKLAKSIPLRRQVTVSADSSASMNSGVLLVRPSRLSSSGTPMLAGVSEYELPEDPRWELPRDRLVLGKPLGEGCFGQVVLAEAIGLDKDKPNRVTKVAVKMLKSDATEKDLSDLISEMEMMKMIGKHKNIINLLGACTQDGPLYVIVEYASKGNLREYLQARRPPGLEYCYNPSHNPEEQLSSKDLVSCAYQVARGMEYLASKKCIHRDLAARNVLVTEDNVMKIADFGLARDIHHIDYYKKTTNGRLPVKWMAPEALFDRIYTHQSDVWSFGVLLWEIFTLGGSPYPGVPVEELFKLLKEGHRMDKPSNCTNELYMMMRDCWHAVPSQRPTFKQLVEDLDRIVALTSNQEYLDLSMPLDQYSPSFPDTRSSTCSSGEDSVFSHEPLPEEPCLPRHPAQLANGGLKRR
assay.overview: FGFR-1 high ATP kinase assay (TR-FRET)
Structures can show the parent of a compound that is named as a salt.
measured.attribute: log10 of IC50 (log10 of the value in nM)
Base-10 log of IC50, unit nM.

COc1cc(C)cc2cc(-c3cc(CN4CCC(N(C)C)C4)n4ncnc(N)c34)sc12 (centres unmarked) : 1.13
CNC(=O)CNCc1cc(-c2cc3cc(C)cc(OC)c3s2)c2c(N)ncnn12 : 1.92
COc1cc(C)cc2cc(-c3cc(CN4CCN(C(=O)CCC(N)=O)CC4)n4ncnc(N)c34)sc12 [Example 95, dihydrochloride] : 1.98
COc1cc(C)cc2cc(-c3cc(C(=O)N4CCC[C@@H](N)C4)n4ncnc(N)c34)sc12 : 1.45
COc1cc(C)cc2cc(-c3cc(CNCCC4CCCN4C)n4ncnc(N)c34)sc12 (centres unmarked) : 1.69

Using the record for `COc1cc(C)cc2cc(-c3cc(CNCC(N)=O)n4ncnc(N)c34)sc12` , report its log10 of IC50.
1.42

Could you do the same for `COc1cc(C)cc2cc(-c3cc(CNC4CCN(C)CC4)n4ncnc(N)c34)sc12` , please?
1.77

Could you do the same for COc1cc(C)cc2cc(-c3cc(CN4CCC(NCC(C)O)C4)n4ncnc(N)c34)sc12 (centres unmarked) , please?
0.97

----------
assayed.system: human FGFR-1 (Homo sapiens)
assay.overview: FGFR-1 high ATP kinase assay (TR-FRET)
Let's look at some compounds and their measured IC50.
API: value field is a number in nM; no unit string.

COc1cc(C)cc2cc(-c3cc(COC4CCOC4)n4ncnc(N)c34)sc12 (centres unmarked) : 83.1
COc1cc(C)cc2cc(-c3cc(CN4CC(N(C)C)C4)n4ncnc(N)c34)sc12 : 49.6
CCN1CCN(Cc2cc(-c3cc4cc(C)cc(OC)c4s3)c3c(N)ncnn23)CC1 : 93.6
COc1cc(C)cc2cc(-c3cc(CN4CCC(O)CC4)n4ncnc(N)c34)sc12 : 15.7
COc1cc(C)cc2cc(-c3cc(CN(C)C4CCN(C)C4)n4ncnc(N)c34)sc12 (centres unmarked) : 20.8

Using the record for COc1cc(C)cc2cc(-c3cc(CN4CCNC(=O)C4C)n4ncnc(N)c34)sc12 (centres unmarked) , report its IC50.
57.1

Could you do the same for `COc1cc(C)cc2cc(-c3cc(COC[C@@H]4CCCN4)n4ncnc(N)c34)sc12` , please?
65.6

Could you do the same for `COc1cc(C)cc2cc(-c3cc(CN4CCN(CC(N)=O)CC4)n4ncnc(N)c34)sc12` , please?
48.9

----------
assayed.system: human mTOR (Homo sapiens (Human), UniProt P42345)
Sequence (P42345 1360-2549): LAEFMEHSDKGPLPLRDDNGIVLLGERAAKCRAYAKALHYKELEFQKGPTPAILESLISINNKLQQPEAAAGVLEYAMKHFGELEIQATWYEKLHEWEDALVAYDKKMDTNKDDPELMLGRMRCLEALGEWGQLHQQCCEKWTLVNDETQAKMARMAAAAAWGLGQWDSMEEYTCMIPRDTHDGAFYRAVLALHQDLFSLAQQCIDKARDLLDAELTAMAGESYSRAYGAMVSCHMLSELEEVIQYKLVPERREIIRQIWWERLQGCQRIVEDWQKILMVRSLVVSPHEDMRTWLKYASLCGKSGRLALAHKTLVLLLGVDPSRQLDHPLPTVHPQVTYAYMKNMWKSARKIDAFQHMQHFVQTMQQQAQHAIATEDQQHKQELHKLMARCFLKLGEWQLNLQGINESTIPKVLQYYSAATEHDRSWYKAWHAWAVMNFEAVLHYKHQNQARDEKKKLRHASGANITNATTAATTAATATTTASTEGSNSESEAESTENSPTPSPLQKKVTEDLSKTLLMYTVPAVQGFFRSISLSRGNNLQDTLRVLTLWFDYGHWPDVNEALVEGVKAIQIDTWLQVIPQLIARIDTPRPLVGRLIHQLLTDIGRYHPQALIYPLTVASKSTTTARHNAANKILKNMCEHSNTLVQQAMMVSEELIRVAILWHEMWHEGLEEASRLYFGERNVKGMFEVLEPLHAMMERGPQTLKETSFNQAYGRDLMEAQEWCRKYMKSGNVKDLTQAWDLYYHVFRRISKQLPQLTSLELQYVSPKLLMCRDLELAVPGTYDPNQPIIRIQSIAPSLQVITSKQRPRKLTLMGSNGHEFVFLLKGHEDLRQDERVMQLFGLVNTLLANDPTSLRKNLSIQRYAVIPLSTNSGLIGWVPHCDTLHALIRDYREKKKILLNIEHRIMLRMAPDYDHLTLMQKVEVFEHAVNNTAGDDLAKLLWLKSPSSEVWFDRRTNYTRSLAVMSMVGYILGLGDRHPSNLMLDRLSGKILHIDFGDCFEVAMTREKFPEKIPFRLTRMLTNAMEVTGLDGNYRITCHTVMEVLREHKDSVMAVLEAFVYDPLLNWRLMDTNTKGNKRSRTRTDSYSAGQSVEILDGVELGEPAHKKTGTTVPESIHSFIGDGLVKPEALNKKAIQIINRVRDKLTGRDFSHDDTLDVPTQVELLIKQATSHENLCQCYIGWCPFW
assay.overview: mTOR kinase assay (TR-FRET, for comparative purposes)
Type: biochemical
assay.setup: read-out: mTOR % inhibition @ 1 μM, 1 μM test compound, 40 μM ATP, mean values
Let's look at some molecules and their measured inhibition at 1 µM.

Illustrative cases are given below, each with its answer.
COc1cc(C)cc2cc(-c3cc(CNC4CCS(=O)(=O)C4)n4ncnc(N)c34)sc12 (stereo not shown) : 35.6%
COc1cc(C)cc2cc(-c3cc(CN(C)CCCN(C)C)n4ncnc(N)c34)sc12 : 7.3%
COc1cc(C)cc2cc(-c3cc(Cn4cc(C)nc4C)n4ncnc(N)c34)sc12 : 47.8%

Using the record for `COc1cc(C)cc2cc(-c3cc(CN4CNC(=O)C4)n4ncnc(N)c34)sc12` , report its inhibition at 1 µM.
26%
